Data origin: patent US20170306005A1

Entries and their kon
Biological target: T1, mouse tenascin-C rCd4-His-FBG (rat; mouse, UniProt P05540 207-392, limits assumed)
T1 construct: domain: domains 3 and 4; C-terminal FBG fusion; biotinylated in the ELISA screen; also called Mu TNC; mouse TNC rCd4-His-FBG; not shown: 6His tag
T1 sequence (chain (part 1 of 2)): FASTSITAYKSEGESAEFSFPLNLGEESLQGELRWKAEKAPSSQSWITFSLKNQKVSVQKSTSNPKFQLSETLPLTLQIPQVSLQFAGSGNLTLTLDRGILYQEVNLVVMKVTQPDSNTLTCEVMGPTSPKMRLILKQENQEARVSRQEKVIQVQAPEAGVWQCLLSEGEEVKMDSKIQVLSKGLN
T1 sequence (chain (part 2 of 2)): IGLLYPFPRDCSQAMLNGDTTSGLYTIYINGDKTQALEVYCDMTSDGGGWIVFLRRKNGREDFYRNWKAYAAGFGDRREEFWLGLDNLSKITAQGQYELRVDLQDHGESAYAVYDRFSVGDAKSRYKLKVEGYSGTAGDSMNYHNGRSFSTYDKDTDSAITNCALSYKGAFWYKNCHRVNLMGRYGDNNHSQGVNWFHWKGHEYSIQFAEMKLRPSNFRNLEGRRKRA
Experiment: SPR, captured purified IgG4, 37 C
Could you give me the number in M⁻¹ s⁻¹? Just the number is fine.

So what does the record say about kon for 165_13_C3 human IgG4 (antibody, V domains shown, also called IgG4 C3; C3 IgG4 MAb) VH: QVQLVESGGGLVQPGRSLRLSCAASGFTFDDYAMHWVRQAPGKGLEWVSGISGSGGSTYYADSVKGRFTISRDNAKNSLYLQMNSLRAEDTALYYCAKSYQSDEDAFDIWGQGTMVTVSS VL: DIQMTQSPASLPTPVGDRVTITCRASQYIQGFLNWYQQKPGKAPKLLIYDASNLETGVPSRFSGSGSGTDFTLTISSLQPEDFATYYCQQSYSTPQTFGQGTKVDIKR ?
972000
